System: rats subjected to adrenalectomy (granuloma around implanted cotton wads)
test_method_notes: granulom test (cotton-pellet test) on rats subjected to adrenalectomy: granuloma growth, thymus weight, body weight increase
Format: in vivo, rat (Sprague-Dawley)
reported_conditions: Table 3; adrenalectomized young male Sprague-Dawley rats, topical in implanted cotton wads, day 8
reported_metric: Dose required to obtain 50% inhibition of Granuloma growth

In the examples that follow, each entry is paired with its recorded Dose required to obtain 50% inhibition of Granuloma growth.
[[record]]
compound = "CCCCC(=O)OCC(=O)[C@@]12OC(C)O[C@@H]1C[C@H]1[C@@H]3CCC4=CC(=O)C=C[C@]4(C)[C@@]3(F)[C@@H](O)C[C@@]12C (single isomer, unassigned) [18 A]"
measured_result = "< 3 γ/animal"

[[record]]
compound = "CCCC1O[C@@H]2C[C@H]3[C@@H]4CCC5=CC(=O)C=C[C@]5(C)[C@@]4(F)[C@@H](O)C[C@]3(C)[C@]2(C(=O)COC(=O)c2cc3ccccc3o2)O1 (single isomer, unassigned) [20 B]"
measured_result = "< 3 γ/animal"


Next, consider the following compound.
Query for rats subjected to adrenalectomy (granuloma around implanted cotton wads): what Dose required to obtain 50% inhibition of Granuloma growth does the record show for CC1O[C@@H]2C[C@H]3[C@@H]4C[C@H](F)C5=CC(=O)C=C[C@]5(C)[C@@]4(F)[C@@H](O)C[C@]3(C)[C@]2(C(=O)CO)O1 (single isomer, unassigned) [7 B] ?
10 γ/animal

Entry source: patent US3996359A
